Test: Single ascending dose study in healthy volunteers, plasma PK (Example 2)
Format: in vivo, human
Conditions: human, plasma, oral, 22 mg, fed (HCHF breakfast); read-out: Mean (±SD) C12h
Quantity kind: concentration at 12 h (ng/mL)
Answers are plain numbers, in ng/mL.

Exercise: Consider the molecule shown here: [2H][C@@](C)(NC(=O)COC(F)F)c1cc(F)cc(Cl)c1COc1cccc2c(-c3ncnn3C)cc(C)nc12 [compound of formula (I)] What is its recorded concentration at 12 h?
Solution: 19.6

====

Assay: Single ascending dose study in healthy volunteers, plasma PK (Example 2)
Format: in vivo, human
Details: human, plasma, oral, 12 mg, fasted; mean; read-out: C0.25h
Quantity kind: concentration at 0.25 h (µg/mL)
Numbers only, in µg/mL.

Exercise: Entry [2H][C@@](C)(NC(=O)COC(F)F)c1cc(F)cc(Cl)c1COc1cccc2c(-c3ncnn3C)cc(C)nc12 : reported concentration at 0.25 h = ?
Solution: 0.0603
